Species: Rattus norvegicus
Assay: Open TG-GATES - Regimen: Daily Repeat
Assay type: toxicity, organism-based, Sprague-Dawley
Parameters: regimen Daily Repeat, gender Male, age 6 weeks
Conditions: in vivo, po, 0 mg/kg, 72 h, tissue Blood, route gavage, dose level Control, time 3 day
RECORDED_ENDPOINT: Fbg (mg/dL)
Write the value in mg/dL as a bare number.

Sample records with Fbg:
O=c1ccc2ccccc2o1 :: 204.2
CC(S)C(=O)NCC(=O)O (configuration not stated) :: 300.2
CCCCC1C(=O)N(c2ccccc2)N(c2ccccc2)C1=O :: 233.4

Prompt: Tell me its Fbg given CC(=O)[C@@]1(O)CC[C@H]2[C@@H]3C=C(Cl)C4=CC(=O)CC[C@]4(C)[C@H]3CC[C@@]21C as the entry.
Response: 295

Prompt: Tell me its Fbg given CN(CCOc1ccc(CC2SC(=O)NC2=O)cc1)c1ccccn1.O=C(O)/C=C\C(=O)O (configuration not stated) [ROSIGLITAZONE MALEATE] as the entry.
Response: 236.8

Prompt: Tell me its Fbg given CCO as the entry.
Response: 205.6

Prompt: Tell me its Fbg given CCCCNC(=O)NS(=O)(=O)c1ccc(C)cc1 [TOLBUTAMIDE] as the entry.
Response: 315.4

Provenance of the data: ChEMBL document CHEMBL3885861
